- assay protocol: Viability of peripheral blood mononuclear cells (alamarBlue)
- Type: cell-based
- measurement parameters: human, peripheral blood mononuclear cells (PBMCs), 0.5 µM, read-out: viable PBMCs at 0.5 µM
reported metric: viability at 24 h, 0.5 µM

Known viability at 24 h, 0.5 µM results, listed for orientation:
[[record]]
compound = "O=C1C2C3c4ccccc4C(/C=C/[N+](=O)[O-])(c4ccccc43)C2C(=O)N1CCCCCCN1C(=O)C2C3c4ccccc4C(/C=C/[N+](=O)[O-])(c4ccccc43)C2C1=O (stereo not drawn)"
test_value = "~99%"

[[record]]
compound = "COc1ccc(N2C(=O)C3C4c5ccccc5C(/C=C/[N+](=O)[O-])(c5ccccc54)C3C2=O)cc1 (stereo not drawn) [Compound 16c]"
test_value = "~99%"


Now look at this entry.
Req: # viability at 24 h, 0.5 µM lookup, item O=C1C2C3c4ccccc4C(C=C[N+](=O)[O-])(c4ccccc43)C2C(=O)N1c1ccc(Cl)cc1 (stereo not drawn) [Compound 16b]
Resp: ~99%

---

Recorded melting point values for a group of compounds are listed next.

Illustrative cases are given below, each with its answer.
[[record]]
compound = "CC/C(=C\\C12c3ccccc3C(c3ccccc31)C1C(=O)N(c3ccc(Cl)cc3)C(=O)C12)[N+](=O)[O-] (stereo not shown) [Compound 17d]"
reported_metric = "melting point"
test_value = "275 to 279 °C"

[[record]]
compound = "O=C1NC(=O)C2C1C1c3ccccc3C2(/C=C/[N+](=O)[O-])c2ccccc21 (stereo not shown) [Compound 13g]"
reported_metric = "melting point"
test_value = "176 to 178 °C"

[[record]]
compound = "O=C1OC(=O)C2C1C1(Cl)c3ccccc3C2(/C=C/[N+](=O)[O-])c2ccccc21 (stereo not shown) [Compound 13d]"
reported_metric = "melting point"
test_value = "275 to 277 °C"

[[record]]
compound = "O=C1C2C3c4ccccc4C(/C=C/[N+](=O)[O-])(c4ccccc43)C2C(=O)N1c1ccccc1O (stereo not shown) [Compound 16l]"
reported_metric = "melting point"
test_value = "203 to 206 °C"

[[record]]
compound = "O=C1NC(=O)C2C1C1c3ccccc3C2(/C=N/O)c2ccccc21 (stereo not shown) [Compound 23j]"
reported_metric = "melting point"
test_value = "272 to 273 °C"

[[record]]
compound = "N#CC(C#N)=CC12c3ccccc3C(c3ccccc31)C1C(=O)NC(=O)C12 (stereo not shown) [Compound 23e]"
reported_metric = "melting point"
test_value = "281 to 284 °C"

[[record]]
compound = "O=C1C2C3c4ccccc4C(/C=C/[N+](=O)[O-])(c4ccccc43)C2C(=O)N1Cc1ccccc1 (stereo not shown) [Compound 17i]"
reported_metric = "melting point"
test_value = "232 to 236 °C"

[[record]]
compound = "CC(=CC12c3ccccc3C(c3ccccc31)c1ccccc12)[N+](=O)[O-] [Compound 20b]"
reported_metric = "melting point"
test_value = "226 to 228 °C"

[[record]]
compound = "O=C1C2C3c4ccccc4C(CC[N+](=O)[O-])(c4ccccc43)C2C(=O)N1c1ccccc1 (stereo not shown) [Compound 14c]"
reported_metric = "melting point"
test_value = "248 to 250 °C"

[[record]]
compound = "N#C/C=C/C12c3ccccc3C(c3ccccc31)C1C(=O)NC(=O)C12 (stereo not shown) [Compound 23b]"
reported_metric = "melting point"
test_value = "289 to 300 °C"


Req: Data request, read-out melting point, for CC/C(=C\C12c3ccccc3C(c3ccccc31)C1C(=O)N(c3ccc(OC)cc3)C(=O)C12)[N+](=O)[O-] (stereo not shown) [Compound 17f]
Resp: 254 to 256 °C

Req: Consider the compound N#C/C=C/C12c3ccccc3C(c3ccccc31)C1C(=O)N(c3ccccc3)C(=O)C12 (stereo not shown) [Compound 23c] and give its measured melting point.
Resp: 274 to 281 °C

Req: Reported melting point, compound O=C1C2C3c4ccccc4C(/C=C/[N+](=O)[O-])(c4ccccc43)C2C(=O)N1c1ccc(Br)cc1 (stereo not shown) [Compound 16g] : ____
Resp: 267 to 268 °C

Req: For CC/C(=C\C12c3ccccc3C(c3ccccc31)C1C(=O)NC(=O)C12)[N+](=O)[O-] (stereo not shown) [Compound 13i] , what is its reported melting point?
Resp: 296 to 298 °C

Req: Which melting point is listed for CC/C(=C\C12c3ccccc3C(c3ccccc31)C1C(=O)OC(=O)C12)[N+](=O)[O-] (stereo not shown) [Compound 13c] ?
Resp: 230 to 233 °C

Req: May I ask what melting point has been recorded for O=[N+]([O-])CCC12c3ccccc3C(c3ccccc31)c1ccccc12 [Compound 20e] ?
Resp: 185 to 187 °C

Sourced from paper PMC7168933
